target: SIRT1 (Homo sapiens, UniProt Q96EB6); assay: Mass spectrometry based SIRT1 deacetylation (activation) assay; assay type: biochemical; details: 0.5 μM peptide substrate, 120 μM βNAD+, 10 nM SIRT1, 25 min at 25° C.
Sequence (Q96EB6 whole entry): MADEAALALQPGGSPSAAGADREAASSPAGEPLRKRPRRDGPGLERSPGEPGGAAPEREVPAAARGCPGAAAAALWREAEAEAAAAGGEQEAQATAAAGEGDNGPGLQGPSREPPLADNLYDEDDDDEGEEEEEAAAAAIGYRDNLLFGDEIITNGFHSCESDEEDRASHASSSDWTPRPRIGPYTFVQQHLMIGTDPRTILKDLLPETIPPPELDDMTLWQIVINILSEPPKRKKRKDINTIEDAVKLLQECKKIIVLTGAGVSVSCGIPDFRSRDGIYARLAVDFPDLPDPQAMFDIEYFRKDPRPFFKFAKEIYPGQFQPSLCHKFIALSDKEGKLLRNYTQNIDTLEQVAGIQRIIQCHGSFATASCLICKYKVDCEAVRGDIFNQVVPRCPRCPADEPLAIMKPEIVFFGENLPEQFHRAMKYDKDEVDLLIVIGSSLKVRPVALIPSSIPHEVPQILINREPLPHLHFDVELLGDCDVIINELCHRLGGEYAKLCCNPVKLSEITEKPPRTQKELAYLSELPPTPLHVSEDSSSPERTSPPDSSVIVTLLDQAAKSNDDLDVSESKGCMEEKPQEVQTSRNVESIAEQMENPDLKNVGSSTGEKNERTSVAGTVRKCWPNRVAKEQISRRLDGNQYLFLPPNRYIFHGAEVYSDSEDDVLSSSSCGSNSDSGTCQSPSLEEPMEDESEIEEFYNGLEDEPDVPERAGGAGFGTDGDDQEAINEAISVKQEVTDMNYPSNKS
PARAMETER: EC1.5

> print(dat)
                               input.smiles                       subject.of.test  parameter           readout.value
1  CN(C)CCNc1cc(C(=O)Nc2ccccc2-c2ncc(C(C)(C)C)s2)nc(-c2ccccc2)n1  SIRT1 (Homo sapiens, UniProt Q96EB6)      EC1.5  B (EC1.5>1 and ≦10 uM)
2  CN(C)CCNc1cc(C(=O)Nc2ccccc2-c2ccccn2)nc(-c2ccccc2)n1  SIRT1 (Homo sapiens, UniProt Q96EB6)      EC1.5  B (EC1.5>1 and ≦10 uM)

---

biological target: SIRT1 (Homo sapiens); test: Mass spectrometry based SIRT1 deacetylation (activation) assay; format: biochemical; details: 0.5 μM peptide substrate, 120 μM βNAD+, 10 nM SIRT1, 25 min at 25° C.
PARAMETER: EC1.5

> print(dat)
                                    compound  parameter           readout.value
 1  CCN(CCN(C)C)c1cc(C(=O)Nc2ccccc2Br)nc(-c2ccccc2)n1 [Compound 159]      EC1.5  B (EC1.5>1 and ≦10 uM)
 2  CCc1nnc(-c2ccccc2NC(=O)c2cc(N(CC)CCN(C)C)nc(-c3ccccc3)n2)s1 [Compound 55]      EC1.5          A (EC1.5≦1 uM)
 3  O=C(Nc1ccccc1-c1nnc(N2CCOCC2)s1)c1cc(OC[C@H](O)CO)nc(-c2ccccc2)n1 [Compound 109]      EC1.5          A (EC1.5≦1 uM)
 4  CC(=O)c1ccccc1NC(=O)c1cc(NC2CCN(C(C)C)CC2)nc(-c2ccccc2)n1 [Compound 137]      EC1.5          A (EC1.5≦1 uM)
 5  CN(C)CCNc1cc(C(=O)Nc2ccccc2C(=O)NCC[S+](C)[O-])nc(-c2ccccc2)n1 (stereo not shown) [Compound 152]      EC1.5  B (EC1.5>1 and ≦10 uM)
 6  CN(C)CCNc1cc(C(=O)Nc2ccccc2-c2ccncc2)nc(-c2ccccc2)n1 [Compound 10]      EC1.5  B (EC1.5>1 and ≦10 uM)
 7  CCN(CCOC)c1cc(C(=O)Nc2ccccc2-c2nnc(N3CCOCC3)s2)nc(-c2ccccc2)n1 [Compound 107]      EC1.5          A (EC1.5≦1 uM)
 8  CNCCN(C)c1cc(C(=O)Nc2ccccc2-c2nncs2)nc(-c2ccccc2)n1 [Compound 40]      EC1.5          A (EC1.5≦1 uM)
 9  O=C1CN(c2cc(C(=O)Nc3ccccc3-c3nnc(N4CCOCC4)s3)nc(-c3ccccc3)n2)CCN1 [Compound 103]      EC1.5          A (EC1.5≦1 uM)
10  CCN(CCN(C)C)c1cc(C(=O)Nc2ccccc2-c2nnc(-c3cccnc3)s2)nc(-c2ccccc2)n1 [Compound 81]      EC1.5          A (EC1.5≦1 uM)
11  COCCN(CCOC)c1cc(C(=O)Nc2ccccc2-c2nnc(N3CCOCC3)s2)nc(-c2ccccc2)n1 [Compound 106]      EC1.5          A (EC1.5≦1 uM)
12  CN(C)CCNc1cc(C(=O)Nc2ccccc2C(=O)NCCC(=O)O)nc(-c2ccccc2)n1 [Compound 130]      EC1.5  B (EC1.5>1 and ≦10 uM)
13  CN(C)CCNc1cc(C(=O)Nc2ccccc2-c2ncc(C(C)(C)C)s2)nc(-c2ccccc2)c1 [Compound 29]      EC1.5  B (EC1.5>1 and ≦10 uM)
14  CC(C)C(=O)c1ccccc1NC(=O)c1cc(NCCN(C)C)nc(-c2ccccc2)n1 [Compound 142]      EC1.5  B (EC1.5>1 and ≦10 uM)
15  CN(C)CCNc1cc(C(=O)Nc2ccccc2-c2c[nH]c(-c3ccccc3)n2)nc(-c2ccccc2)n1 [Compound 15]      EC1.5          A (EC1.5≦1 uM)

Taken from patent US20110039847A1.
